- Tested on: Vero
- Protocol Notes: Cytotoxicity against African green monkey Vero cells assessed as reduction in cell viability by coulter counter method
- Type: cell-based
- Condition: chlorocebus sabaeus
Where a SMILES comes first, the peptide text is derived from it. [ ]: non-standard residue; d: D form. The star is where a group is joined. AllylGly = C=CC[C@H](N)C(=O)O; NHBn = c1ccc(CN*)cc1; ClAc = O=C(CCl)*
Quantity: log10 of CC50 (log10 of the value in µM)

[[record]]
molecule = "C=CC[C@H](NC(=O)CCl)C(=O)N[C@@H](Cc1c[nH]c2ccccc12)C(=O)NCc1ccccc1 (ClAc-[AllylGly]-Trp-NHBn)"
quantity = "log10 of CC50"
value_measured = 1.59

[[record]]
molecule = "CC(C)C[C@H](NCc1ccc(-c2ccccc2)cc1)C(=O)N[C@@H](Cc1c[nH]c2ccccc12)C(=O)NCc1ccccc1"
quantity = "log10 of CC50"
value_measured = 1.54

[[record]]
molecule = "C=CC[C@H](NCc1ccccc1)C(=O)N[C@@H](Cc1c[nH]c2ccccc12)C(=O)NCc1ccc(-c2ccccc2)cc1"
quantity = "log10 of CC50"
value_measured = 1.89

[[record]]
molecule = "C#CC[C@H](NCCC)C(=O)N[C@@H](Cc1c[nH]c2ccccc12)C(=O)NCc1ccc(-c2ccccc2)cc1"
quantity = "log10 of CC50"
value_measured = 1.63

[[record]]
molecule = "CC(C)(C)NC(=O)[C@H](Cc1c[nH]c2ccccc12)NC(=O)[C@H](Cc1ccccc1)NCc1ccc(-c2ccccc2)cc1"
quantity = "log10 of CC50"
value_measured = 0.17

[[record]]
molecule = "C#CC[C@H](NC(=O)OC(C)(C)C)C(=O)N(Cc1ccccc1)Cc1cn(C)c2ccc(C(=O)OC)cc12"
quantity = "log10 of CC50"
value_measured = 0.91

[[record]]
molecule = "COC(=O)c1ccc2c(c1)c(CN(CCc1ccc(-c3ccccc3)cc1)Cc1ccccc1)cn2CC(C)C"
quantity = "log10 of CC50"
value_measured = 1.50

[[record]]
molecule = "C#CC[C@H](NCc1ccc(-c2ccccc2)cc1)C(=O)N[C@@H](Cc1c[nH]c2ccccc12)C(=O)NC(C)(C)C"
quantity = "log10 of CC50"
value_measured = 0.67

[[record]]
molecule = "C#CC[C@H](NCc1ccccc1)C(=O)N[C@@H](Cc1c[nH]c2ccccc12)C(=O)NCc1ccc(-c2ccccc2)cc1"
quantity = "log10 of CC50"
value_measured = 1.71

[[record]]
molecule = "CC(C)C[C@H](NCc1ccc(-c2ccccc2)cc1)C(=O)N[C@@H](Cc1c[nH]c2ccccc12)C(=O)NC(C)(C)C"
quantity = "log10 of CC50"
value_measured = 1.03

